target entity: SCRIB_1, Q14160
Sequence (Q14160 718-814): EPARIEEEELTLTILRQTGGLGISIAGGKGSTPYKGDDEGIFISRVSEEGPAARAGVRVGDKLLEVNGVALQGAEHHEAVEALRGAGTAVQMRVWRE
assay comment: holdup assay
Parameters: key: below the threshold = too weak to quantify, mostly under pKd 3.1 to 4
experimental conditions: plain residues with an end cap or a label only (N-terminal biotin on a linker: ado-ado)
measured metric: pKd

Below: 4 binders and their reported pKd.
1. PAPSSGKDYV [CLDN1, O95832] ... below the threshold
2. AKPSRISTVV [IQSEC2, Q5JU85] ... 3.58
3. SKSNFGSEPL [KIF17, Q9P2E2] ... below the threshold
4. EVEEFPETSV [TRPV3, Q8NET8] ... 4.54

Next, consider the following binder.
Form field: reported pKd of YLEPVLSSEL [ATP2A2, P16615;P16615-3] 4.38

Hey, just so you know, these numbers are from paper PMC9482650.
